Below, each entry is listed with its recorded max % larvae.
Tested on: Danio rerio embryo/larva
protocol: max % larvae with abnormal position across tested concentrations; higher = more toxic; extreme values may be limits of the assay
settings: exposure: 6-8 hpf to 5 dpf, scored at 6 dpf

molecule	systemUnderTest	max % larvae
O=C(O)CCC(F)(F)C(F)(F)C(F)(F)C(F)(F)C(F)(F)C(F)(F)F [3-(Perfluorohexyl)propanoic acid] (max tested concentration (log10 uM): 1)	Danio rerio embryo/larva	4.17%
C=C(C)C(=O)OCC(F)(F)C(F)(F)C(F)(F)F [(Perfluoropropyl)methyl methacrylate] (max tested concentration (log10 uM): 2)	Danio rerio embryo/larva	4.17%
N=C(N)C(F)(F)C(F)(F)C(F)(F)C(F)(F)C(F)(F)C(F)(F)C(F)(F)F [Perfluorooctanamidine] (max tested concentration (log10 uM): 1)	Danio rerio embryo/larva	0%
OCCCC(F)(F)C(F)(F)C(F)(F)C(F)(F)C(F)(F)C(F)(F)C(F)(F)F [7:3 Fluorotelomer alcohol] (max tested concentration (log10 uM): 2)	Danio rerio embryo/larva	0%
O=S(=O)(O)C(F)(F)C(F)(F)C(F)(F)C(F)(F)F [Potassium perfluorobutanesulfonate] (max tested concentration (log10 uM): 2)	Danio rerio embryo/larva	0%
